# Species: Cavia porcellus
# test: Inhibition of guinea pig complement-mediated immune lysis of sheep red blood cells at 10 uM after 12 mins
reported.endpoint: inhibition (%)

// returns reported inhibition for input `N=C(N)c1ccc(OCCCOc2ccc(C(=N)N)cc2Br)c(Br)c1`
6.3

Name the recorded inhibition for `Cl.N=C(N)c1cccc(OCc2ccc(COc3cccc(C(=N)N)c3)cc2)c1` .
5.6

Would you mind telling me what inhibition value was observed for `Cl.N=C(N)c1ccc(OCc2ccc(COc3ccc(C(=N)N)cc3I)cc2)c(I)c1` ?
0

[I] Cl.N=C(N)c1cccc(COc2ccc3cc(OCc4cccc(C(=N)N)c4)ccc3c2)c1
[II] N=C(N)c1cccc(OCc2ccc3cc(COc4cccc(C(=N)N)c4)ccc3c2)c1
# compare inhibition for I vs II ; return the one with the smaller value State the label of the item chosen.
I
(I: 11%, II: 36.6%)

---

# target.or.test.system: UniProtKB P00752
# Sequence (P00752 whole entry): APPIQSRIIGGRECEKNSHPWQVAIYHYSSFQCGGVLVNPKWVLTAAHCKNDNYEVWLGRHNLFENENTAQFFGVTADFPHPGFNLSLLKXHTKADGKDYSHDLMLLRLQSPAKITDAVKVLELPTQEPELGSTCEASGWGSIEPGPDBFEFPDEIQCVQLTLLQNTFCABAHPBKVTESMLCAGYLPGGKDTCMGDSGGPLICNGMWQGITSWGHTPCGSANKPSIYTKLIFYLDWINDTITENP
# test: Inhibition of porcine pancreatic kallikrein using BPPANA as substrate after 15 to 180 mins
reported.endpoint: Ki (nM)

[1] Cl.N=C(N)c1ccc(OCc2ccc(COc3ccc(C(=N)N)cc3I)cc2)c(I)c1
[2] Cl.N=C(N)c1ccc(OCc2cccc(COc3ccc(C(=N)N)cc3I)c2)c(I)c1
Endpoint returns whichever of 1 and 2 has the numerically higher Ki. Mark your selection by writing its label.
1
(1: 610 nM, 2: 31 nM)

---

# target.or.test.system: Prothrombin (Bos taurus)
# test: Inhibition of bovine thrombin-mediated blood clotting formation in presence of human fibrinogen
pIC50: −log10 of the molar value.
reported.endpoint: pIC50

[A] Cl.N=C(N)c1ccc(COc2ccc3ccc(OCc4ccc(C(=N)N)cc4)cc3c2)cc1
[B] N=C(N)c1cccc(OCc2ccc3cc(COc4cccc(C(=N)N)c4)ccc3c2)c1
Input pair: A , B . Output: entry with lower pIC50. Let me know the label of the one you choose.
B

[A] Cl.N=C(N)c1cccc(OCc2cccc(COc3cccc(C(=N)N)c3)c2)c1
[B] Cl.N=C(N)c1cccc(OCc2cccc(-c3cccc(COc4cccc(C(=N)N)c4)c3)c2)c1
[C] Cl.N=C(N)c1ccc(OCc2ccc(COc3ccc(C(=N)N)cc3)cc2)cc1
Could you please order the items by pIC50, going from the lowest number to the highest? Lab note: final answer is the ordered label list.
C, A, B
(C: 4.77, A: 5.19, B: 5.40)

---

# target.or.test.system: Prothrombin (Bos taurus, UniProt P00735)
# test: Inhibition of amidase activity of bovine thrombin using BPVANA as substrate after 15 to 40 mins
pKi: −log10 of the molar value.
reported.endpoint: pKi

Request body: readout pKi, system Prothrombin (Bos taurus, UniProt P00735), query `Cl.N=C(N)c1ccc(OCc2ccc(COc3ccc(C(=N)N)cc3Br)cc2)c(Br)c1` . Return the value.
6.80

[a] Cl.N=C(N)c1ccc(OCc2cccc(-c3cccc(COc4ccc(C(=N)N)cc4Br)c3)c2)c(Br)c1
[b] Cl.N=C(N)c1ccc(OCc2cccc(-c3cccc(COc4ccc(C(=N)N)cc4)c3)c2)cc1
[c] Cl.N=C(N)c1ccc(OCc2ccc(COc3ccc(C(=N)N)cc3I)cc2)c(I)c1
Put the items in order so that reported pKi rises from first to last. Use the labels to give the requested order.
b, a, c
(b: 6.24, a: 6.57, c: 6.96)

---

# Organism: Cavia porcellus
# test: Inhibition of guinea pig complement-mediated immune lysis of sheep red blood cells at 10 uM after 12 mins
reported.endpoint: inhibition (%)

# inhibition lookup, item `N=C(N)c1ccc(OCCCCCOc2ccc(C(=N)N)cc2Br)c(Br)c1`
20.8

Recorded inhibition for `Cl.N=C(N)c1cccc(COc2cccc3c(OCc4cccc(C(=N)N)c4)cccc23)c1` , please?
0

I have this compound here, `Cl.N=C(N)c1cccc(OCc2cccc(COc3cccc(C(=N)N)c3)c2)c1` , and I need its recorded inhibition.
0

Could you share which inhibition value was measured for `Cl.N=C(N)c1ccc(OCc2cccc(COc3ccc(C(=N)N)cc3I)c2)c(I)c1` ?
0

May I ask what inhibition has been recorded for `Cl.N=C(N)c1ccc(COc2ccc3ccc(OCc4ccc(C(=N)N)cc4)cc3c2)cc1` ?
12.8

Any idea what its inhibition is? The compound is `Cl.N=C(N)c1ccc(OCc2c(Cl)c(Cl)c(Cl)c(COc3ccc(C(=N)N)cc3)c2Cl)cc1`
5.9

[1] Cl.N=C(N)c1ccc(OCc2ccc(COc3ccc(C(=N)N)cc3)cc2)cc1
[2] Cl.N=C(N)c1ccc(OCc2ccc(COc3ccc(C(=N)N)cc3)c3ccccc23)cc1
Select the item with the higher value of inhibition from the options 1 and 2 listed. Write down the label attached to your selection.
2

[I] Cl.N=C(N)c1ccc(COc2cccc3c(OCc4ccc(C(=N)N)cc4)cccc23)cc1
[II] Cl.N=C(N)c1ccc(OCc2cc(COc3ccc(C(=N)N)cc3)c3ccccc3c2)cc1
Which of the two gives a bigger number for inhibition: I or II ? Lab log: write the label of the selected item as the result.
II

---

# test: Inhibition of bovine trypsin using BANA as substrate after 15 to 30 mins
# Set-up: species or system Bos taurus
reported.endpoint: Ki (µM)

Example results:
Requested read-out: Ki. Entry: `Cl.N=C(N)c1ccc(COc2ccc3ccc(OCc4ccc(C(=N)N)cc4)cc3c2)cc1`
1.8

Entry `Cl.N=C(N)c1ccc(OCc2cccc(-c3cccc(COc4ccc(C(=N)N)cc4Br)c3)c2)c(Br)c1` has what Ki?
0.25

[A] Cl.N=C(N)c1cccc(OCc2ccc(COc3cccc(C(=N)N)c3)cc2)c1
[B] Cl.N=C(N)c1cccc(COc2ccc3cc(OCc4cccc(C(=N)N)c4)ccc3c2)c1
Just curious, which one has the larger Ki reading, A or B ? Mark your selection by writing its label.
A

---

# test: Inhibition of bovine trypsin using BANA as substrate after 15 to 30 mins
# Design: species or system Bos taurus
reported.endpoint: Ki (µM)

// solved cases for Ki follow
For the molecule `Cl.N=C(N)c1ccc(OCc2cccc(COc3ccc(C(=N)N)cc3I)c2)c(I)c1` , what Ki is on record?
0.67

// query Ki value for entry `Cl.N=C(N)c1cccc(OCc2cccc(-c3cccc(COc4cccc(C(=N)N)c4)c3)c2)c1`
4.01

Entry `Cl.N=C(N)c1ccc(OCc2ccc(COc3ccc(C(=N)N)cc3)c3ccccc23)cc1` : reported Ki = ?
1.9

What value of Ki has been reported for the following molecule? `Cl.N=C(N)c1ccc(OCc2cc(COc3ccc(C(=N)N)cc3)c3ccccc3c2)cc1`
1.8

Using the record for `Cl.N=C(N)c1ccc(COc2cccc3c(OCc4ccc(C(=N)N)cc4)cccc23)cc1` , report its Ki.
2.8

[A] Cl.N=C(N)c1ccc(OCc2cccc(-c3cccc(COc4ccc(C(=N)N)cc4)c3)c2)cc1
[B] Cl.N=C(N)c1ccc(OCc2cccc(COc3ccc(C(=N)N)cc3)c2)cc1
[C] Cl.N=C(N)c1cccc(COc2cccc3c(OCc4cccc(C(=N)N)c4)cccc23)c1
Put these in order: smallest Ki first, largest last. Your reply should list the labels following the order given in the request.
C, A, B

---

# Species on record: Cavia porcellus
# test: Inhibition of guinea pig complement-mediated immune lysis of sheep red blood cells at 30 uM after 12 mins
reported.endpoint: inhibition (%)

Use the examples below as a reference point.
Given `Cl.N=C(N)c1ccc(OCc2ccc(COc3ccc(C(=N)N)cc3)c3ccccc23)cc1` , state its recorded inhibition.
10.8

Dear colleague, I am looking for the recorded inhibition of the following compound: `Cl.N=C(N)c1cccc(OCc2ccc(COc3cccc(C(=N)N)c3)cc2)c1`
14

[1] Cl.N=C(N)c1ccc(OCc2cc(COc3ccc(C(=N)N)cc3)c3ccccc3c2)cc1
[2] Cl.N=C(N)c1ccc(OCc2cccc(COc3ccc(C(=N)N)cc3)c2)cc1
[3] Cl.N=C(N)c1ccc(OCc2ccc(COc3ccc(C(=N)N)cc3I)cc2)c(I)c1
[4] Cl.N=C(N)c1ccc(OCc2ccc(COc3ccc(C(=N)N)cc3)cc2)cc1
Order the records, beginning with the lowest inhibition and ending with the highest. A complete answer lists every label in the requested sequence.
4, 2, 1, 3

---

# Species on record: Cavia porcellus
# test: Inhibition of guinea pig complement-mediated immune lysis of sheep red blood cells at 30 uM after 12 mins
reported.endpoint: inhibition (%)

Use these answered entries as a reference point.
Endpoint output: inhibition of `Cl.N=C(N)c1ccc(OCc2cccc(COc3ccc(C(=N)N)cc3I)c2)c(I)c1` . Value?
32.6

Tell me the measured inhibition of `N=C(N)c1cccc(OCc2ccc3cc(COc4cccc(C(=N)N)c4)ccc3c2)c1` , please.
47

Looking for the measured inhibition of `Cl.N=C(N)c1cccc(OCc2cccc(COc3cccc(C(=N)N)c3)c2)c1` , can you help?
13.7

Look up inhibition: `N=C(N)c1ccc(OCCCCCOc2ccc(C(=N)N)cc2Br)c(Br)c1`
28.5

Look at this compound and give its reported inhibition. `Cl.N=C(N)c1ccc(COc2ccc3ccc(OCc4ccc(C(=N)N)cc4)cc3c2)cc1`
37.4

[a] N=C(N)c1ccc(OCCCOc2ccc(C(=N)N)cc2Br)c(Br)c1
[b] Cl.N=C(N)c1ccc(COc2cccc3c(OCc4ccc(C(=N)N)cc4)cccc23)cc1
[c] Cl.N=C(N)c1cccc(COc2cccc3c(OCc4cccc(C(=N)N)c4)cccc23)c1
Kindly order the items shown according to inhibition, from the highest value down. Record the ranking as a list of labels in the requested order.
a, c, b
(a: 26.9%, c: 8.9%, b: 0%)
